- assay text: Plasma vosaroxin pharmacokinetics in patients
- Type: in vivo, human
- measurement context: human, plasma, intravenous, MRT, mean, twice weekly, Day 11, 9–50 mg/m^2, N 28, cycle 1
measurement name: MRT
Entry format: amount then unit.

Prompt: Query: MRT; subject: CN[C@H]1CN(c2ccc3c(=O)c(C(=O)O)cn(-c4nccs4)c3n2)C[C@@H]1OC [vosaroxin]
Response: 30.8 h

###

- assay text: Plasma vosaroxin pharmacokinetics in patients
- Assay type: in vivo, human
- measurement context: human, plasma, intravenous, CL, mean, twice weekly, Day 11, 9–50 mg/m^2, N 28, cycle 1
measurement name: clearance (mL/min)
Just the number in mL/min, nothing appended.

Prompt: If you can, please state the reported clearance value of CN[C@H]1CN(c2ccc3c(=O)c(C(=O)O)cn(-c4nccs4)c3n2)C[C@@H]1OC .
Response: 75.3
